Test system: PC-3
test summary: Antiproliferative activity against human PC-3 cells assessed as cell viability incubated for 72 hrs by MTT assay
Format: functional, cell-based
applied conditions: PC-3, 72 h
result type: pIC50
Keep in mind that pIC50 stands for -log10 of concentration in molar terms.

COc1ccc(N(C)c2nc(/C=C/c3cc(OC)c(OC)c(OC)c3)nc3ccccc23)cc1 = 5.08
COc1ccc(N(C)c2nc(/C=C/c3cccc(F)c3)nc3cccc(F)c23)cc1 = 6.40
COc1ccc(N(C)c2nc(/C=C/c3ccc(Cl)cc3Cl)nc3ccccc23)cc1 = 5.84
COc1ccc(N(C)c2nc(/C=C/c3ccc(Cl)cc3)nc3ccccc23)cc1 = 6.21

For "COc1ccc(N(C)c2nc(/C=C/c3cccc(OC)c3)nc3cccc(F)c23)cc1" , what is its reported pIC50? 6.44

For "CN(c1ccc2c(c1)OCO2)c1nc(/C=C/c2ccccc2)nc2ccccc12" , what is its reported pIC50? 5.97

For "COc1ccc(N(C)c2nc(/C=C/c3ccccc3)nc3ccccc23)c(OC)c1" , what is its reported pIC50? 5.56

For "COc1ccc(N(C)c2nc(/C=C/c3cccc(Br)c3)nc3ccccc23)cc1" , what is its reported pIC50? 5.13

###

target or system: Tubulin
test summary: Inhibition of tubulin polymerization (unknown origin) in presence of GTP by fluorescence plate reader analysis
result type: IC50 (µM)
Kindly answer with a numeric value in µM, unit omitted.

For "COc1ccc(N(C)c2nc(/C=C/c3cccc(OC)c3)nc3ccccc23)cc1" , what is its reported IC50? 3.16

###

Tested on: RKO
test summary: Antiproliferative activity against human RKO cells assessed as cell viability incubated for 72 hrs by MTT assay
Format: functional, cell-based
I'd appreciate it if you marked entries Met when IC50 is lower than 0.5 µM and Not met when it is not.

COc1ccc(N(C)c2nc(C)nc3ccccc23)cc1 [VERUBULIN] = Met
COc1ccc(N(C)c2nc(/C=C/c3ccc(OC)cc3OC)nc3ccccc23)cc1 = Met
COc1ccc(N(C)c2nc(/C=C/c3cccc(OC)c3)nc3cccc(F)c23)cc1 = Met
COc1ccc(N(C)c2nc(/C=C/c3ccc(Cl)cc3)nc3ccccc23)cc1 = Met
COc1cc(OC)cc(N(C)c2nc(/C=C/c3ccccc3)nc3ccccc23)c1 = Not met

Say whether its IC50 is strictly beneath 0.5 µM. Entry: "COc1ccc(N(C)c2nc(/C=C/c3cccc(OC)c3OC)nc3ccccc23)cc1" Not met

Say whether its IC50 is strictly beneath 0.5 µM. Entry: "COc1ccc(N(C)c2nc(/C=C/c3cccc(Br)c3)nc3ccccc23)cc1" Not met

Say whether its IC50 is strictly beneath 0.5 µM. Entry: "COc1ccc(N(C)c2nc(/C=C/c3ccc(OC)c(OC)c3OC)nc3ccccc23)cc1" Met

Say whether its IC50 is strictly beneath 0.5 µM. Entry: "COc1ccc(N(C)c2nc(/C=C/c3cc(OC)c(OC)c(OC)c3)nc3ccccc23)cc1" Not met

###

test summary: Clerance in Sprague-Dawley rat at 5 mg/kg, iv measured upto 24 hrs by HPLC-MS analysis
Format: ADME, organism-based
applied conditions: in vivo
result type: clearance (mL/min/kg)
Kindly answer with a numeric value in mL/min/kg, unit omitted.

For "COc1ccc(N(C)c2nc(/C=C/c3cccc(OC)c3)nc3ccccc23)cc1" , what is its reported clearance? 22.2
